- experiment: Leishmania major promastigote growth inhibition, primary screen (AID 1063);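 further: promastigotes grown with compound for 44 hours at 28 °C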
- assay_setup: Leishmania major promastigotes, resazurin fluorescence viability; at 10 µM; hits give high values
About 18,000 (9%) of roughly 200,000 compounds were called active. This excerpt belongs to a sample that is enriched for actives.
As shown below, each of these compounds has a reported inhibition value.
Kindly answer with a numeric value in %, unit omitted.

Take a look at these entries with their results.
CCCCC1N2CC3([N+](=O)[O-])CN1CC([N+](=O)[O-])(C2)C3(C)C (stereo unspecified)    -3.35
COc1ccccc1NC(=O)c1c(Br)cnn1C    -1.37
O=C(CCN1C(=O)c2ccccc2C1=O)NCCCn1ccnc1    -10.1

Reported inhibition of CC1(C)CC(=O)C(C2c3ccccc3S(=O)(=O)c3ccccc32)C(=O)C1 : -3.12

Reported inhibition of Cc1oc2cc([N+](=O)[O-])c(O)c([N+](=O)[O-])c2c1C(=O)c1ccc(Br)cc1 : -8.1

Reported inhibition of C/C(=N\NC(=O)Cc1ccc(Cl)cc1)c1ccccn1 : 100

Reported inhibition of O=C(Cn1c(COc2ccccc2)nc2ccccc21)Nc1cc(Cl)c(Cl)cc1Cl : 94.1

Reported inhibition of O=C(O)c1ccc(NC(=O)c2cccs2)cc1 : -4.2

The values you see were collected from PubChem BioAssay AID1063.
